- Tested on: HS 578T breast
- Test Description: NCI tumour cell line growth inhibition, 48 h
I'd be grateful if you could share measured log10 TGI for these entries.
// stored as log10 of TGI expressed in µM

Go through the list and state log10 TGI for each entry.
1. CCCCCCCCCCCC(=O)OCC(C[As](=O)(O)O)OC(=O)CCCCCCCCCCC (stereo not given)
2. CN1CCN(CCCNc2nc3ccc(Oc4ccc(NC(=O)Nc5cc(C(F)(F)F)ccc5F)cc4)cc3[nH]2)CC1
3. COc1ccc(C(=O)c2cc(C)c(OC)c(C)c2)cc1OC(=O)CCl
4. CCCCC(CC)COC(=O)C[N+](C)(C)CCOC(c1ccccc1)c1ccccc1 (stereo not given)
5. Cc1cc2ncnn2cc1Nc1ncc2c(n1)n(C1CCOCC1)c(=O)n2C
6. COc1ccc(-c2nc3ccccn3c2/C=C/C(=O)c2cc(OC)c(OC)c(OC)c2)cc1OC

Return:
1: 1.12; 2: 0.92; 3: 1.99; 4: 0.82; 5: 1.37; 6: 0.99
